System: Histamine-induced anaphylactoid reactions
Test: Inhibition of anaphylactoid cutaneous reaction induced by histamine
Assay type: in vivo, rat (Sprague-Dawley)
Conditions: Rattus norvegicus, 1 h; rats, 2 × 10^-5 mol/kg p.o., one hour before challenge; histamine intradermal
Procedure: 1. Determination of the inhibition of passive cutaneous anaphylaxis (P.C.A.) and of the anaphylactoid cutaneous reaction induced by histamine. […] The oedematous anaphylactic (P.C.A.) and anaphylactoid (histamine-induced) reactions caused by the challenging i.v. ovalbumin injection, which are manifested by oedema formation, swelling and exudation of blue dye, were evaluated 30 minutes after challenge by the i.v. ovalbumin injection. […]
Kindly return satisfied if reported inhibition in vivo at 20 µmol/kg is no lower than 70%; return not satisfied if it is lower.

Use the examples below as a reference point.
Cc1ccnc(N2CCN(CCc3c(C)n4c5c(cc(C)cc35)CCC4)CC2)c1    satisfied
Cc1ccnc(N2CCN(CCc3c(C)n4c5c(cccc35)CCC4c3ccc(O)cc3)CC2)c1 (stereo not shown)    satisfied
CC(=O)Oc1cc2c3c(c1)c(CCN1CCN(c4cc(C)ccn4)CC1)c(C)n3CCC2    not satisfied
COc1cccc(N2CCN(CCc3c(C)n4c5c(cccc35)CCC4)CC2)c1    not satisfied
Cc1ccnc(N2CCN(CCc3c(-c4ccc(Cl)cc4)n4c5c(cccc35)CCC4)CC2)c1    not satisfied

Prompt: Is it the case that Cc1ccnc(N2CCN(CCc3c(C)n4c5c(cccc35)CC4C)CC2)c1 (stereo not shown) has inhibition in vivo at 20 µmol/kg reaching or exceeding 70%?
Response: satisfied

Prompt: Is it the case that Cc1ccnc(N2CCN(CCc3c(C)n4c5c(cc(C(O)C(C)C)cc35)CCC4)CC2)c1 (stereo not shown) has inhibition in vivo at 20 µmol/kg reaching or exceeding 70%?
Response: satisfied

----------
Biological target: cyclooxygenase (Mus musculus, UniProt P22437)
Construct: A cell suspension containing peritoneal cells of male mice 8-10 weeks old was obtained; endogenous in cells; host or cells: mouse peritoneal macrophages (male mice 8-10 weeks old), zymosan-stimulated
Sequence (P22437 27-602): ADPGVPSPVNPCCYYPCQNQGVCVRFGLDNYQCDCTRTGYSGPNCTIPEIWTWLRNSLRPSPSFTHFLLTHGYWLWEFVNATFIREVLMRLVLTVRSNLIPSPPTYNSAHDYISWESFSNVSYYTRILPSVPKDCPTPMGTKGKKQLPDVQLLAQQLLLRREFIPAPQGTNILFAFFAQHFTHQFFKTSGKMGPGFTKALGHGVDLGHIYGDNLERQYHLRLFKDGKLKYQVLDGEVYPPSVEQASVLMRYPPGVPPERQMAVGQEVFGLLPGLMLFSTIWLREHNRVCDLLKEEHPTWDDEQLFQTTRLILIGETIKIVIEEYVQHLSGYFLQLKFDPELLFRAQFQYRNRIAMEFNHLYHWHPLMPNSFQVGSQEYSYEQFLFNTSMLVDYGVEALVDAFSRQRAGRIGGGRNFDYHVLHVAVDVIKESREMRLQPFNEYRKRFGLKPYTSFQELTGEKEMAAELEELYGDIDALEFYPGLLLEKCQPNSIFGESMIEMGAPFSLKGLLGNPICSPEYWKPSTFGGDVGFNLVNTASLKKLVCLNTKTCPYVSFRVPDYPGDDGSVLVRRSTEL
Test: Cyclooxygenase inhibition: release of 6-keto-PGF1 α from zymosan-stimulated mouse peritoneal macrophage cells
Assay type: cell-based
Conditions: 10^-5 mol/l, read-out: In vitro % inhibition effect on the release of 6-keto-PGF1 α
The reader will find reported inhibition at 10 µM values listed item by item below.
Supply the numeric figure in %, leaving out any unit text.

Please review the following examples before continuing.
Cc1ccnc(N2CCN(CCc3c(C)n4c5c(cc(C(O)C(C)C)cc35)CCC4)CC2)c1 (stereo not shown)    5
Cc1ccnc(N2CCN(CCc3c(C)n4c5c(cc(CC(C)C)cc35)CCC4)CC2)c1    64
Cc1ccnc(N2CCN(CCc3c(CO)n4c5c(cccc35)CCC4)CC2)c1    18

Prompt: Which value of inhibition at 10 µM has been reported for Cc1ccnc(N2CCN(CCc3c(C)n4c5c(cccc35)CC4C)CC2)c1 (stereo not shown) in the records?
Response: 21
